# Target Or System: LPA/S1P GPCR of interest (Homo sapiens)
# Construct: host or cells: CHO
# Method Description: Beta-Arrestin based assay (PathHunter)
# Assay type: cell-based
pEC50: −log10 of the molar value.
Measurement Label: pEC50

* C[C@@H](OC(=O)Nc1c(-c2cc3sc(-c4ccc5occ(C6(C(=O)O)CC6)c5c4)cc3s2)cnn1C)c1ccccc1 | < 6.30
* CCc1nc(C(=O)O)c(Oc2ccc(-c3ccc(-c4onc(C)c4NC(=O)O[C@H](C)c4ccccc4)cc3)cc2)o1 | > 7.30
* C[C@@H](OC(=O)Nc1c(-c2cc3sc(-c4ccc(CC(=O)O)cc4C(F)(F)F)cc3s2)nnn1C)c1ccccc1 | < 6.30
* Cc1noc(-c2ccc(-c3ccc(OC4(C(=O)O)CC4)cc3)cc2)c1NC(=O)O[C@H](C)c1ccccc1 | > 7.30

* * *

# Target Or System: LPA1 (Homo sapiens, UniProt Q92633)
# Sequence (Q92633 whole entry): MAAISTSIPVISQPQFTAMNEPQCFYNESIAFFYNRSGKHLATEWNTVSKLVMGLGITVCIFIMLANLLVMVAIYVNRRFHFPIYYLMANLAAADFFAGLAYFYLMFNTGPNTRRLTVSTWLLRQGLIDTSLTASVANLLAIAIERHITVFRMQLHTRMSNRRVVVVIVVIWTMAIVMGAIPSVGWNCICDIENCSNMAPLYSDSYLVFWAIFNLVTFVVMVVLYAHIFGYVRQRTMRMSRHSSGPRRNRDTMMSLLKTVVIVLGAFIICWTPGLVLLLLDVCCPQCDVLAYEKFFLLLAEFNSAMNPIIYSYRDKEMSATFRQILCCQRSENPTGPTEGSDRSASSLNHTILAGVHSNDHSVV
# Method Description: LPA1 Migration Assay (Oris)
# Condition Label: read-out: Cell Migration EC50
Form field: EC50 (one value per entry).
Measurement Label: EC50

• Cc1noc(-c2ccc(-c3ccc(C4(C(=O)O)CC(F)(F)C4)cc3)cc2)c1NC(=O)O[C@H](C)c1ccccc1 = 50 to 500 nM
• Cc1noc(-c2cc3sc(-c4cc(F)c(OC5(C(=O)O)CC5)c(F)c4)cc3s2)c1NC(=O)O[C@H](C)c1ccccc1 = 50 to 500 nM
• C[C@@H](OC(=O)Nc1c(C(F)(F)F)nnn1-c1ccc(-c2ccc(C3(C(=O)O)CC3)cc2)cc1)c1ccccc1 = > 500 nM
• Cc1nsc(-c2cc(Cl)c(-c3cc4sc(C5(C(=O)O)CC5)cc4s3)cc2F)c1NC(=O)O[C@H](C)c1ccccc1 = 50 to 500 nM
• Cc1noc(-c2ccc(-c3ccc(NS(C)(=O)=O)cc3)cc2)c1NC(=O)O[C@H](C)c1ccccc1 = > 500 nM
• C[C@@H](OC(=O)Nc1c(-c2ccc(-c3ccc(Oc4ccccc4C(=O)O)c(F)c3)cc2)cnn1C)c1ccccc1 = < 50 nM
• Cc1noc(-c2ccc(-c3ccc(Oc4ccccc4C(=O)O)c(F)c3)cc2)c1NC(=O)O[C@H](C)c1ccccc1 = < 50 nM
• Cc1noc(-c2ccc(-c3ccc(Oc4cccnc4C(=O)O)c(F)c3)cc2)c1NC(=O)O[C@H](C)c1ccccc1 = < 50 nM
• Cc1noc(-c2ccc(-c3cc(F)c(C4(C(=O)O)CC4)c(F)c3)cc2)c1NC(=O)O[C@H](C)c1ccccc1 = < 50 nM
• Cc1nnn(-c2ccc(-c3cc(F)c(Oc4ncccc4C(=O)O)c(F)c3)cc2)c1NC(=O)O[C@H](C)c1ccccc1 = 50 to 500 nM
• Cc1nsc(-c2cc3sc(-c4ccc(C5(C(=O)O)CC5)cc4)cc3s2)c1NC(=O)O[C@H](C)c1ccccc1 = 50 to 500 nM
• C[C@@H](OC(=O)Nc1c(-c2cc3sc(-c4ccc(CC(=O)O)c(Cl)c4)cc3s2)cnn1C)c1ccccc1 = > 500 nM
• Cc1nsc(-c2ccc(-c3cc(F)c(Oc4ccncc4C(=O)O)c(F)c3)cc2)c1NC(=O)O[C@H](C)c1ccccc1 = > 500 nM
• Cc1nsc(-c2ccc(-c3nnc(CC(=O)O)o3)cc2)c1NC(=O)O[C@H](C)c1ccccc1 = > 500 nM
• Cc1noc(-c2ccc(-c3ccc(C(F)(F)C(=O)O)cc3)cc2)c1NC(=O)O[C@H](C)c1ccccc1 = 50 to 500 nM

* * *

Form field: pEC50 (one value per entry).
# Target Or System: LPA/S1P GPCR of interest (Homo sapiens)
# Method Description: Beta-Arrestin based assay (PathHunter)
pEC50: −log10 of the molar value.
Measurement Label: pEC50

* Cc1noc(-c2ccc(-c3ccc4c(c3)CC(C)(C(=O)O)O4)cc2)c1NC(=O)O[C@H](C)c1ccccc1 (some centres unmarked) [IT498] | > 7.30
* Cc1nnn(-c2ccc(-c3cc(F)c(Oc4ccncc4C(=O)O)c(F)c3)cc2)c1NC(=O)O[C@H](C)c1ccccc1 [IT440] | 6.30 to 7.30
* Cc1noc(-c2cc3sc(C#CC4(C(=O)O)CC4)cc3s2)c1NC(=O)O[C@H](C)c1ccccc1 [IT117] | > 7.30
* Cc1nsc(-c2cc3sc(-c4ccc(CC(=O)O)cc4N)cc3s2)c1NC(=O)O[C@H](C)c1ccccc1 [IT182] | < 6.30
* Cc1nsc(-c2cc3sc(-c4cc(F)c(CC(=O)O)cc4F)cc3s2)c1NC(=O)O[C@H](C)c1ccccc1 [IT326] | 6.30 to 7.30
* C[C@@H](OC(=O)Nc1c(-c2ccc(-c3ccc(C4(C(=O)OC5OC(C(=O)O)C(O)C(O)C5O)CC4)cc3)cc2)cnn1C)c1ccccc1 (some centres unmarked) [IT105] | 6.30 to 7.30
* Cc1noc(-c2ccc(-c3ccc(Oc4ncsc4C(=O)O)cc3)cc2)c1NC(=O)O[C@H](C)c1ccccc1 [IT417] | 6.30 to 7.30
* Cc1noc(-c2ccc(-c3ccc(C4(C(=O)O)CC(F)(F)C4)cc3)cc2)c1NC(=O)O[C@H](C)c1ccccc1 [IT136] | > 7.30
* C[C@@H](OC(=O)Nc1c(-c2ccc(-c3ccc(OC4(C(=O)O)CC4)c(F)c3)cc2)oc2ccccc12)c1ccccc1 [IT492] | 6.30 to 7.30
* Cc1cc(C2(C(=O)O)CC2)c(F)cc1-c1cc2sc(-c3nnn(C)c3NC(=O)O[C@H](C)c3ccccc3)cc2s1 [IT341] | > 7.30
* C[C@@H](OC(=O)Nc1c(-c2cc(F)c(-c3cc(F)c(Oc4ncccc4C(=O)O)c(F)c3)cc2F)cnn1C)c1ccccc1 [IT473] | > 7.30
* C[C@@H](OC(=O)Nc1c(-c2ccc(-c3ccc(Oc4cccc(F)c4C(=O)O)cc3)cc2)cnn1C)c1ccccc1 [IT456] | > 7.30
* C[C@@H](OC(=O)Nc1c(-c2ccc(C#CC(=O)O)cc2)cnn1C)c1ccccc1 [IT371] | < 6.30
* C[C@@H](OC(=O)Nc1c(-c2ccc(-c3ccc(Oc4cccc(F)c4C(=O)O)cc3)cc2)nnn1C)c1ccccc1 [IT455] | > 7.30
* C[C@@H](OC(=O)Nc1c(-c2ccc(-c3nnc(C4(C(=O)O)CC4)s3)cc2)nnn1C)c1ccccc1 [IT208] | < 6.30
* CC(C)[C@@H](NC(=O)C#Cc1ccc(-c2cnn(C)c2NC(=O)O[C@H](C)c2ccccc2)cc1)C(=O)O [IT403] | < 6.30
* C[C@@H](OC(=O)Nc1c(-c2cc3sc(-c4ccc(CC(=O)O)cc4Cl)cc3s2)cnn1C)c1ccccc1 [IT140] | 6.30 to 7.30
* COC(=O)C1(c2cc3sc(C#Cc4cnn(C)c4NC(=O)O[C@H](C)c4ccccc4)cc3s2)CC1 [IT479] | > 7.30
* C[C@@H](OC(=O)Nc1c(-c2cc3sc(-c4ccc(CC(=O)O)c(F)c4)cc3s2)nnn1C)c1ccccc1 [IT293] | 6.30 to 7.30
* C[C@@H](OC(=O)Nc1c(-c2ccc(-c3nnc(C4(C(=O)O)CC4)o3)cc2)nnn1C)c1ccccc1 [IT175] | < 6.30
* C[C@@H](OC(=O)Nc1c(-c2ccc(C#CC(=O)Nc3ccc(C(=O)O)cc3)cc2)cnn1C)c1ccccc1 [IT431] | < 6.30
* COc1cc(-c2cc3sc(-c4snc(C)c4NC(=O)O[C@H](C)c4ccccc4)cc3s2)ccc1C1(C(=O)O)CC1 [IT331] | 6.30 to 7.30
* C[C@@H](OC(=O)Nc1c(-c2cc3sc(-c4ccc5c(C6(C(=O)O)CC6)coc5c4)cc3s2)cnn1C)c1ccccc1 [IT395] | < 6.30
* Cc1nsc(-c2cc3sc(-c4ccc(C5(C(=O)O)CC5)cn4)cc3s2)c1NC(=O)O[C@H](C)c1ccccc1 [IT426] | 6.30 to 7.30
* C[C@@H](OC(=O)Nc1c(-c2cc3sc(-c4ccc5[nH]cc(CC(=O)O)c5c4)cc3s2)nnn1C)c1ccccc1 [IT298] | 6.30 to 7.30
* Cc1cc(-c2cc3sc(-c4cnn(C)c4NC(=O)O[C@H](C)c4ccccc4)cc3s2)ccc1C1(C(=O)O)CC1 [IT323] | 6.30 to 7.30
* C[C@@H](OC(=O)Nc1c(-c2ccc(-c3ccc(C(=O)O)s3)cc2)nnn1C)c1ccccc1 [IT203] | < 6.30
* C[C@@H](OC(=O)Nc1c(-c2ccc(-c3cc(F)c(OC4(C(=O)O)CC4)c(F)c3)cc2)cnn1C)c1ccccc1 [IT314] | > 7.30
* COc1cc(C2(C(=O)O)CC2)c(F)cc1-c1cc2sc(-c3snc(C)c3NC(=O)O[C@H](C)c3ccccc3)cc2s1 [IT412] | < 6.30

* * *

# Target Or System: LPA/S1P GPCR of interest (Homo sapiens, UniProt Q92633)
# Sequence (Q92633 whole entry): as above
# Method Description: Beta-Arrestin based assay (PathHunter)
Form field: EC50 (one value per entry).
Measurement Label: EC50

• C[C@@H](OC(=O)Nc1c(-c2cc3sc(-c4ccc(C5(C(=O)O)CC5)nc4)cc3s2)nnn1C)c1ccccc1 [IT270] = < 0.05 µM
• Cc1nsc(-c2ccc(-c3cc(F)c(Oc4ccncc4C(=O)O)c(F)c3)cc2)c1NC(=O)O[C@H](C)c1ccccc1 [IT439] = < 0.05 µM
• COc1cc(C2(C(=O)O)CC2)ccc1-c1cc2sc(-c3snc(C)c3NC(=O)O[C@H](C)c3ccccc3)cc2s1 [IT360] = > 0.5 µM
• Cc1cc(C2(C(=O)O)CC2)ccc1-c1cc2sc(-c3snc(C)c3NC(=O)O[C@H](C)c3ccccc3)cc2s1 [IT361] = < 0.05 µM
